Please respond with reported fraction unbound at 4 h, 500 pmol/mL for every item in the list.
System: serum proteins
assayRemarks: protein binding to serum proteins (Sephadex G-50 size-exclusion chromatography)
Type: in vitro ADME
runConditions: fresh human serum, 37° C., 4 h, read-out: Percentage of radioligand bound to serum proteins after 4 h incubation (converted)
Where a SMILES comes first, the peptide text is derived from it. [ ]: non-standard residue; d: D form. The star is where a group is joined. DOTA = O=C(O)CN1CCN(CC(=O)O)CCN(CC(=O)*)CCN(CC(=O)O)CC1; 1Nal = N[C@@H](Cc1cccc2ccccc12)C(=O)O; NMeNle = CCCC[C@H](NC)C(=O)O
Hey, just send me the number, nothing else.

Requested read-out: fraction unbound at 4 h, 500 pmol/mL. Entry: CSCC[C@H](NC(=O)[C@H](Cc1c[nH]c2ccccc12)NC(=O)CNC(=O)[C@H](Cc1ccc(O)cc1)NC(=O)[C@H](C)NC(=O)[C@@H](CCC(=O)O)NC(=O)CN1CCN(CC(=O)O)CCN(CC(=O)O)CCN(CC(=O)O)CC1)C(=O)N[C@@H](CC(=O)O)C(=O)N[C@@H](Cc1ccccc1)C(N)=O [^111In-DOTA-MG11, metal not drawn, reference compound] ({DOTA}-[dE]AYGWMDF-NH2)
0.899

Need fraction unbound at 4 h, 500 pmol/mL, item CCCC[C@@H](C(=O)N[C@@H](CC(=O)O)C(=O)N[C@@H](Cc1ccc2ccccc2c1)C(N)=O)N(C)C(=O)[C@H](Cc1c[nH]c2ccccc12)NC(=O)CNC(=O)[C@H](Cc1ccc(O)cc1)NC(=O)[C@H](C)NC(=O)[C@@H](CCC(=O)O)NC(=O)CN1CCN(CC(=O)O)CCN(CC(=O)O)CCN(CC(=O)O)CC1 [^111In-DOTA-MGS5-2, metal not drawn]
0.683

I have this compound here, CCCC[C@@H](C(=O)N[C@@H](CC(=O)O)C(=O)N[C@@H](Cc1cccc2ccccc12)C(N)=O)N(C)C(=O)[C@H](Cc1c[nH]c2ccccc12)NC(=O)CNC(=O)[C@H](Cc1ccc(O)cc1)NC(=O)[C@H](C)NC(=O)[C@@H](CCC(=O)O)NC(=O)CN1CCN(CC(=O)O)CCN(CC(=O)O)CCN(CC(=O)O)CC1 [^111In-DOTA-MGS5, metal not drawn] , and I need its recorded fraction unbound at 4 h, 500 pmol/mL.
0.59

Look up fraction unbound at 4 h, 500 pmol/mL for this compound: CCCC[C@@H](C(=O)N[C@@H](CC(=O)O)C(=O)N(C)[C@@H](Cc1cccc2ccccc12)C(N)=O)N(C)C(=O)[C@H](Cc1c[nH]c2ccccc12)NC(=O)CNC(=O)[C@H](Cc1ccc(O)cc1)NC(=O)[C@H](C)NC(=O)[C@@H](CCC(=O)O)NC(=O)CN1CCN(CC(=O)O)CCN(CC(=O)O)CCN(CC(=O)O)CC1 [^111In-DOTA-MGS11, metal not drawn]
0.681

Entry under review: CCCC[C@@H](C(=O)N[C@@H](CC(=O)O)C(=O)N[C@@H](Cc1cccc2ccccc12)C(N)=O)N(C)C(=O)[C@H](Cc1c[nH]c2ccccc12)NC(=O)CNC(=O)[C@H](Cc1ccc(O)cc1)NC(=O)[C@H](C)NC(=O)[C@@H](CCCCN)NC(=O)CN1CCN(CC(=O)O)CCN(CC(=O)O)CCN(CC(=O)O)CC1 [^111In-DOTA-MGS9, metal not drawn] ({DOTA}-[dK]AYGW[NMeNle]D[1Nal]-NH2) . Reported fraction unbound at 4 h, 500 pmol/mL?
0.734

Need fraction unbound at 4 h, 500 pmol/mL of CCCC[C@@H](C(=O)N[C@@H](CC(=O)O)C(=O)N[C@@H](Cc1cccc2ccccc12)C(N)=O)N(C)C(=O)[C@H](Cc1c[nH]c2ccccc12)NC(=O)CNC(=O)[C@@H]1CCCN1C(=O)[C@H](Cc1ccc(O)cc1)NC(=O)[C@@H](CCC(=O)O)NC(=O)CN1CCN(CC(=O)O)CCN(CC(=O)O)CCN(CC(=O)O)CC1 [^111In-DOTA-MGS10, metal not drawn] ({DOTA}-[dE]YPGW[NMeNle]D[1Nal]-NH2) , thanks.
0.433

What measured fraction unbound at 4 h, 500 pmol/mL goes with CSCC[C@H](NC(=O)[C@H](Cc1c[nH]c2ccccc12)NC(=O)CNC(=O)[C@H](Cc1ccc(O)cc1)NC(=O)[C@H](C)NC(=O)[C@@H](CCC(=O)O)NC(=O)CN1CCN(CC(=O)O)CCN(CC(=O)O)CCN(CC(=O)O)CC1)C(=O)N[C@@H](CC(=O)O)C(=O)N[C@@H](Cc1cccc2ccccc12)C(N)=O [^111In-DOTA-MGS1, metal not drawn, reference compound] ({DOTA}-[dE]AYGWMD[1Nal]-NH2) ?
0.8

Value lookup for fraction unbound at 4 h, 500 pmol/mL; key = CCCC[C@@H](C(=O)N[C@@H](CC(=O)O)C(=O)N(C)[C@@H](Cc1ccccc1)C(N)=O)N(C)C(=O)[C@H](Cc1c[nH]c2ccccc12)NC(=O)CNC(=O)[C@H](Cc1ccc(O)cc1)NC(=O)[C@H](C)NC(=O)[C@@H](CCC(=O)O)NC(=O)CN1CCN(CC(=O)O)CCN(CC(=O)O)CCN(CC(=O)O)CC1 [^111In-DOTA-MGS4, metal not drawn, reference compound]
0.911
